Assay: Asphyxic anoxemia (latency time for disappearance of the ECoG)
Format: in vivo, Sprague Dawley (Charles River) male rat
Conditions: 10 mg/kg intravenous, 3 minutes before asphyxia; rat; read-out: % of variation of the latency time for disappearance of the ECoG after asphyxia
Procedure: The test is carried out using a Sprague Dawley (Charles River) male rat anaesthetized with ethyl ether, immobilized (tube curare 1 mg/kg I.V.) and artificially ventilated with air. The electrocorticogram (ECoG) and the arterial pressure are recorded. The rectal temperature is maintained at around 36° C. and the level of carbon dioxide in the blood is maintained between 35 and 40 torr. […] The latency time for the disappearance of the ECoG is measured.

[
  {
    "compound": "Cc1ccc2c3c4n(c2c1)[C@H](O)C[C@H]1CCCN(CC3)[C@H]41 (relative stereo) [Example 8]",
    "change in vivo at 10 mg/kg": "37%"
  },
  {
    "compound": "COc1ccc2c(c1)c1c3n2[C@H](O)C[C@H]2CCCN(CC1)[C@H]32 (relative stereo) [Example 28]",
    "change in vivo at 10 mg/kg": "35%"
  },
  {
    "compound": "COc1ccc2c3c4n(c2c1)[C@@H](O)C[C@H]1CCCN(CC3)[C@H]41 (relative stereo) [Example 21]",
    "change in vivo at 10 mg/kg": "30%"
  },
  {
    "compound": "Cc1ccc2c3c4n(c2c1)C=C[C@H]1CCCN(CC3)[C@H]41 (relative stereo) [Example 10]",
    "change in vivo at 10 mg/kg": "47%"
  },
  {
    "compound": "COc1ccc2c3c4n(c2c1)CC[C@H]1CCCN(CC3)[C@H]41 (relative stereo) [Example 25]",
    "change in vivo at 10 mg/kg": "20%"
  }
]

----------
system: adrenergic alpha2 receptors; test: Affinity for adrenergic alpha2 receptors (inhibition of specific 3H rauwolscine fixation, rat cortex); type: binding, rat (male; brain cortices); conditions: from CD (phentolamine) and CX (product) inhibiting 50% of specific fixation of 3H rauwolscine 0.15 nM, 25° C., 45 minutes
Rule: RAL (relative affinity, in relation to phentolamine as reference product) of 60 or more gives condition met; anything lower gives condition not met.

[
  {
    "molecule": "Cc1ccc2c3c4n(c2c1)C=C[C@H]1CCCN(CC3)[C@H]41 (relative stereo) [Example 10]",
    "assigned.class": "condition met"
  },
  {
    "molecule": "Cc1ccc2c(c1)c1c3n2C=C[C@H]2CCCN(CC1)[C@H]32 (relative stereo) [Example 16]",
    "assigned.class": "condition met"
  },
  {
    "molecule": "O[C@@H]1C[C@H]2CCCN3CCc4c(n1c1ccc(Cl)cc41)[C@H]23 (relative stereo) [Example 4]",
    "assigned.class": "condition not met"
  },
  {
    "molecule": "Cc1ccc2c(c1)c1c3n2CC[C@H]2CCCN(CC1)[C@H]32 (relative stereo) [Example 18]",
    "assigned.class": "condition not met"
  },
  {
    "molecule": "Clc1ccc2c(c1)c1c3n2C=C[C@H]2CCCN(CC1)[C@H]32 (relative stereo) [Example 5]",
    "assigned.class": "condition not met"
  },
  {
    "molecule": "Cc1ccc2c3c4n(c2c1)CC[C@H]1CCCN(CC3)[C@H]41 (relative stereo) [Example 12]",
    "assigned.class": "condition not met"
  },
  {
    "molecule": "Clc1ccc2c3c4n(c2c1)C=C[C@H]1CCCN(CC3)[C@H]41 (relative stereo) [Example 2]",
    "assigned.class": "condition met"
  }
]
